# Test system: IL-6-GFP PC-9GR
# TEST: cell viability (CCK-8 OD) relative to DMSO control (fraction of control); higher = more viable cells
# CONDITION NOTES: compound concentration: 10 uM; treatment time: 48 h
Provide the reported cell viability of each item.
Please respond with just the number, no unit label.

The compound listed as CC(=O)Nc1ccc(CC(=O)O)cc1 shows cell viability equal to 1.61

The compound listed as Cc1ccc(-c2ncc(Cl)cc2-c2ccc(S(C)(=O)=O)cc2)cn1 shows cell viability equal to 0.855

The compound listed as CS(=O)(=O)Nc1cc2occ(NC=O)c(=O)c2cc1Oc1ccccc1 shows cell viability equal to 1.46

The compound listed as Cl.Cl.O=C(O)COCCN1CCN(C(c2ccccc2)c2ccc(Cl)cc2)CC1 (stereo not given) [Cetirizine DiHCl] shows cell viability equal to 1.08

The compound listed as CN1CCN(c2ccc(C(=O)Nc3n[nH]c4ccc(Cc5cc(F)cc(F)c5)cc34)c(NC3CCOCC3)c2)CC1 [Entrectinib (RXDX-101)] shows cell viability equal to 0.164

The compound listed as N#CC1CC2CC2N1C(=O)C(N)C12CC3CC(CC(O)(C3)C1)C2.O (stereo not given) [Saxagliptin hydrate] shows cell viability equal to 0.79

The compound listed as CCCCCCCCCCCCCCCCCCOP(=O)([O-])OC1CC[N+](C)(C)CC1 shows cell viability equal to 0.943

The compound listed as Nc1ccc(S(=O)(=O)Nc2ccnn2-c2ccccc2)cc1 shows cell viability equal to 1.15

The compound listed as CC(C(=O)[O-])c1cccc(Oc2ccccc2)c1.CC(C(=O)[O-])c1cccc(Oc2ccccc2)c1.[Ca+2] (stereo not given) shows cell viability equal to 1.26

The compound listed as CC(Cn1ccc(-c2ccc(C#N)c(Cl)c2)n1)NC(=O)c1cc(C(C)O)[nH]n1 (stereo not given) [Darolutamide (ODM-201)] shows cell viability equal to 0.858

====

# System: IL-6-GFP PC-9
# TEST: cell viability (CCK-8 OD) relative to DMSO control (fraction of control); higher = more viable cells
# CONDITION NOTES: compound concentration: 10 uM; treatment time: 48 h
OBSERVED PROPERTY: cell viability
Please respond with just the number, no unit label.

So the reported cell viability for CC(=O)c1c(C)c2cnc(Nc3ccc(N4CCNCC4)cn3)nc2n(C2CCCC2)c1=O.Cl , on IL-6-GFP PC-9, turned out to be 0.694

So the reported cell viability for Cc1ccc(Cl)c(Nc2ccccc2C(=O)[O][Na])c1Cl [Meclofenamate Sodium] , on IL-6-GFP PC-9, turned out to be 1.02

So the reported cell viability for CC1CCC2(C(=O)OC3OC(COC4OC(CO)C(OC5OC(C)C(O)C(O)C5O)C(O)C4O)C(O)C(O)C3O)CCC3(C)C(=CCC4C5(C)CC(O)C(O)C(C)(CO)C5CCC43C)C2C1C (stereo not drawn) [Asiaticoside] , on IL-6-GFP PC-9, turned out to be 1.17

====

# System: IL-6-GFP PC-9
# TEST: cell viability (CCK-8 OD) relative to DMSO control (fraction of control); higher = more viable cells
# CONDITION NOTES: compound concentration: 10 uM; treatment time: 48 h
OBSERVED PROPERTY: cell viability
Please respond with just the number, no unit label.

The molecule listed as CN1CCN(C(c2ccccc2)c2ccccc2)CC1.Cl.Cl [Cyclizine 2HCl] shows cell viability equal to 0.972

The molecule listed as CC12CCC(=O)C=C1CCC1C2C(O)CC2(C)C1CCC2(O)C(=O)CO (stereo not given) [Hydrocortisone] shows cell viability equal to 0.995

The molecule listed as CC(=O)OC(C)C(C)C(=O)OCC12C3CC4(C)C(=CCC5C6(C)CCC(OC7OC(C(=O)[O][Na])C(OC8OC(CO)C(O)C(O)C8O)C(O)C7OC7OCC(O)C(O)C7O)C(C)(CO)C6CCC54C)C1CC(C)(C)C(O3)C2O (stereo not given) [Sodium Aescinate] shows cell viability equal to 1

The molecule listed as CS(=O)(=O)Nc1cc2occ(NC=O)c(=O)c2cc1Oc1ccccc1 shows cell viability equal to 1.02

The molecule listed as CCC(C)C(=O)OC1CC(O)C=C2C=CC(C)C(CCC(O)CC(O)CC(=O)O)C21 (stereo not given) shows cell viability equal to 0.999

Data credit: the supplement of paper PMC8866396
